assay_target: human GR (glucocorticoid receptor) (Homo sapiens, UniProt P04150)
Sequence (P04150 whole entry): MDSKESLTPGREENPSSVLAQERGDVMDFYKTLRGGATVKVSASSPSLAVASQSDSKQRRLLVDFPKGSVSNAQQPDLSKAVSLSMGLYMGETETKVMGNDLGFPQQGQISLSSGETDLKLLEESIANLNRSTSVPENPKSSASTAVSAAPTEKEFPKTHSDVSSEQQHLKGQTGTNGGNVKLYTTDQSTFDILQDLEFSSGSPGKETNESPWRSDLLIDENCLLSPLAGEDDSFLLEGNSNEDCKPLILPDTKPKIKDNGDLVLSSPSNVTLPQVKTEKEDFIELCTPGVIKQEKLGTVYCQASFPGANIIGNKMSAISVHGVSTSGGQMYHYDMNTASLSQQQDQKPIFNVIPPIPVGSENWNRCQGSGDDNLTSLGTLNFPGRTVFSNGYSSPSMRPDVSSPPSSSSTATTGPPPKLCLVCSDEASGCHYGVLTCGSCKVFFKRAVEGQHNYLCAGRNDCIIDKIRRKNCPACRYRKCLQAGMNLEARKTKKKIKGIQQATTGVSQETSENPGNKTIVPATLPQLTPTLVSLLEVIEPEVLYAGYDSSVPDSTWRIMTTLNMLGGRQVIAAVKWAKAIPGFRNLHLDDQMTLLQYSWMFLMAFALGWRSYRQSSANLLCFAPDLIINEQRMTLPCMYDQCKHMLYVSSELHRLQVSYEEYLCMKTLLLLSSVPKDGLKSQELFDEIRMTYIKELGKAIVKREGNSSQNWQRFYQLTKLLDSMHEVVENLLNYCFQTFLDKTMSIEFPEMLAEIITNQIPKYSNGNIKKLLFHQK
test_method_notes: GRE-luciferase reporter transactivation in transfected COS-1 cells
pEC50: −log10 of the molar value.
quantity_name: pEC50

                                   compound  quantity_name   val
0  CC(=O)O[C@]1(C(C)=O)CC[C@H]2[C@@H]3C[C@H](C)C4=CC(=O)CC[C@]4(C)[C@H]3CC[C@@]21C [medroxyprogesterone acetate]          pEC50  7.38

A: C#C[C@]1(O)CC[C@H]2[C@@H]3CCC4=CC(=O)CC[C@@H]4[C@H]3C(=C)C[C@@]21CC [etonogestrel]
B: C=C1C[C@H]2[C@@H]3CCC4=CC(=O)CC[C@@H]4[C@H]3CC[C@]2(C)[C@@]1(OC(C)=O)C(C)=O [nestorone]
Hey, between A and B which has a smaller measured pEC50? // output: label of the selected item
A
